Data credit: patent US20060257938A1

Experiment: Probe fluorescence ratio response to linolenic acid relative to ADIFAB2
Type: binding
Settings: Table 5
Measured ΔR/DRAΔ2 LNA by item
Could you keep your reply to the number by itself?

{"molecule": "L2P23A4: FABP probe, substitutions M18V G31I F55L A73V vs SEQ ID NO: 2 (protein, listed as Rattus norvegicus, PEPTIDE (1)...(131) wild-type rat intestinal fatty acid binding protein) AFDGTWKVDRNENYEKFVEKMGINVVKRKLIAHDNLKLTITQEGNKFTVKESSNLRNIDVVFELGVDFAYSLVDGTELTGTWTMEGNKLVGKFKRVDNGKELIAVREISGNELIQTYTYEGVEAKRIFKKE", "parameter": "ΔR/DRAΔ2 LNA", "observed-value": 2.6}
{"molecule": "L2P8A6: FABP probe, substitutions M18I G31V F55V A73V vs SEQ ID NO: 2 (protein, listed as Rattus norvegicus, PEPTIDE (1)...(131) wild-type rat intestinal fatty acid binding protein) AFDGTWKVDRNENYEKFIEKMGINVVKRKLVAHDNLKLTITQEGNKFTVKESSNVRNIDVVFELGVDFAYSLVDGTELTGTWTMEGNKLVGKFKRVDNGKELIAVREISGNELIQTYTYEGVEAKRIFKKE", "parameter": "ΔR/DRAΔ2 LNA", "observed-value": 1.2}

We now examine a further molecule.
Challenge: Suppose we examine the molecule L2P8F11: FABP probe, substitution A73I vs SEQ ID NO: 2 (protein, listed as Rattus norvegicus, PEPTIDE (1)...(131) wild-type rat intestinal fatty acid binding protein) AFDGTWKVDRNENYEKFMEKMGINVVKRKLGAHDNLKLTITQEGNKFTVKESSNFRNIDVVFELGVDFAYSLIDGTELTGTWTMEGNKLVGKFKRVDNGKELIAVREISGNELIQTYTYEGVEAKRIFKKE ; what ΔR/DRAΔ2 LNA value has been reported?
Response given: 0.1
